Test: yeast display, Sf9 membrane polyspecificity reagent, FACS + sequencing; frameworks hold sequencing errors
assay-metric: polyreactivity (PSR sort gate)

INSERT INTO results (residue_string, assay_metric, result) VALUES
  ('QVQLVESGGGLVQAGGSLRLSCAASGSTFRVNAMGWYRQAPGKERELVAAISGSGSGTYYADSVKGRFTISRDNAKNTVYLQMNSLKPEDTAVYYCAKVPKSRGYVGGMDYWGQGTQVTVSS', 'polyreactivity (PSR sort gate)', 'low polyreactivity'),
  ('QVQLVESGGGLVQAGGSLRLSCAASGSIFRWNAMGWYRQAPRKEREMVAAIDYSGGSTYYADSVKGRFTISRDNAKKTVYLQMNSLKPEDTAVYFCADTAYYGGYLRYDYWGQGTQVTVSS', 'polyreactivity (PSR sort gate)', 'low polyreactivity'),
  ('QVQLVESGGGLVQAGGSLRLSCAASGSTFHTYDMGWYRQAPGKERELVAAITSGGDTNYADSVKGRFTISRDNAKNTVYLQMNSLKPEDTAVYYCNTDRWGTGKLRYNYWGQGTQVTVSS', 'polyreactivity (PSR sort gate)', 'low polyreactivity'),
  ('QVQLVESGGGLVQAGGSLRLSCAASGSTLNRYAMGWYRQAPGKERELVAAISISGGRTYYADSVKGRFTISRDNAKNTVYLQMNSLKPEDTAVYYCADGNYLYSYGYGYWGQGTQVTVSS', 'polyreactivity (PSR sort gate)', 'high polyreactivity');

Continue with the next sequence.
What value of polyreactivity (PSR sort gate) has been recorded for this entry: "QVQLVESGGGLVQAGGSLRLSCAATGSIFARYAMGWYRQAPGKERELVAAIDQSAGSTYYADSVKGRFTISRDNAKNTVYLQMNSLKPEDTAVYYCNADFWYWWVNTYVGPGLGYWGQGTQVTVSS"
high polyreactivity

----------
Assay: yeast display, Sf9 membrane polyspecificity reagent, FACS + sequencing; frameworks hold sequencing errors
assay-metric: polyreactivity (PSR sort gate)

Illustrative cases are given below, each with its answer.
INSERT INTO measurements (residue_string, assay_metric, result) VALUES
  ('QVQLVESGGGLVQAGGSLRLSCAASGIFGWNAMGWYRQAPGKEREFVAGITYSGTRTYYADSVKGRFTISRDNAKNTVYLQMNSLKPEDPAVYYCAATTGHRNYRSYYWGQGTQVTVSS', 'polyreactivity (PSR sort gate)', 'high polyreactivity'),
  ('QVQLVESGVGLVQARGSLRLSCAASGIIFKKTVMGWYRPSPGKERECVAPITSRDGSTYYADSVKGRFTISRDNANNTVYLQMNSLKPEDTAVYYCAAEVYDGYEYEVWYDYCGQGTQVTVSS', 'polyreactivity (PSR sort gate)', 'high polyreactivity'),
  ('QVQLVESGGGLVQAGGSLRLTCAASGSIFTGYAMRCYRQAPGTERELVAAIRTRGGSPYYADSVKGRFTISRDNAKNTVYLQMNSLKPEDTALYYCAKRYYGWYGNFDYWGQGTQVTVSS', 'polyreactivity (PSR sort gate)', 'high polyreactivity'),
  ('QVQLVESGGGLVQAGGSLRLSCAASGFIFKYNAMGWYRQAPGKERELVAAISRSGGRTYYADSVKGRFTISRDNAKNTVSLQMNSLKPEDTAVYYCAARVGVSGFEYDYWGQGTQVTVSS', 'polyreactivity (PSR sort gate)', 'high polyreactivity'),
  ('QVQLVESGGGLVQAGGSLRLSCAASGSIFFSYAMGWYRQAPGKEREFVAAINSDDASTYADSVKGRFTISRDNAKNTVYLQMNSLKPEDTAVYYCAASFLWSWYDYWGQGTQVTVSS', 'polyreactivity (PSR sort gate)', 'low polyreactivity'),
  ('QVQLVESGGRLVQAGGSLRLSCAASGRIFSRNAMGWYRQAPGKERELVAGISARGGRTYYADSVKGRFTISRDNAKNTVYLQMNSLKPEDTAVYYCAASFSAIRGGVRVTIDYYWGQGTQVTVSS', 'polyreactivity (PSR sort gate)', 'high polyreactivity');

What value of polyreactivity (PSR sort gate) has been recorded for this entry: "QVQLVDSGGGLVQAGGSLRLSCDASGSTFKWYAMGWYRQAPGKERELVAAISWTGASTYYADSVKGRFTISRDNGKNTVYLQMNSLKPEDTAVYYCAADRTYYAMLWTGRSRYDYWGQGTQVTVSS"
high polyreactivity

What value of polyreactivity (PSR sort gate) has been recorded for this entry: "QVQLVESGGGLVQAGGSIRLSSAASGFTFYPYMGWYRQAPVKERELVATITWIGDDTYYADSVKGRFTISRDNAKNTVYLQMNSLKPEDTAVYYCNTDVDDTLYYSPMDYWGQGTQVTVSS"
low polyreactivity
